Source listed as ChEMBL document CHEMBL1142797.

What pIC50 was measured for each of the following?
TARGET: Cyclin-dependent kinase 1/cyclin B1 (Homo sapiens, UniProt P06493)
Sequence (P06493 whole entry): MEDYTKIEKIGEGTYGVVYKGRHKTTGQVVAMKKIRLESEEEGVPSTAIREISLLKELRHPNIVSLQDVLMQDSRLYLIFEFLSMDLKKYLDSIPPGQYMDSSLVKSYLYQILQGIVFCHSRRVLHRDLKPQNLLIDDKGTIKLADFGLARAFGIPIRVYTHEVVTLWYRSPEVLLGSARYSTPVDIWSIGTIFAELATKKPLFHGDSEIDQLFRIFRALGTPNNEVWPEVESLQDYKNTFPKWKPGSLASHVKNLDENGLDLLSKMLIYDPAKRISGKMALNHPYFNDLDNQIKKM
Sequence (P14635 whole entry, further chain): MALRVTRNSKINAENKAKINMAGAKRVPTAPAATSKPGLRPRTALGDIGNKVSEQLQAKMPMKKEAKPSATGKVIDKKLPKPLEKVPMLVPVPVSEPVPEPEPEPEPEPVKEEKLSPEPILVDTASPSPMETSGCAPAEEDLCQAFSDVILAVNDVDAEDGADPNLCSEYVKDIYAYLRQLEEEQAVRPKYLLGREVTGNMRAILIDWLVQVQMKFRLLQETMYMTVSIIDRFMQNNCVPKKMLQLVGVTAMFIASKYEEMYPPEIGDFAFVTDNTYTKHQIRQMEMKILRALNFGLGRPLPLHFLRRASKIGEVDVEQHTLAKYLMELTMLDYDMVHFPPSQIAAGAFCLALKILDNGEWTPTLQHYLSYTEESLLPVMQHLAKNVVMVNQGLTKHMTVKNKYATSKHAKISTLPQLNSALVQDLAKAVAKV
TEST_SUMMARY: Inhibitory concentration against CDK1/ Cyclin B
pIC50: −log10 of the molar value.

Example results:
- ITEM_SMILES: "COc1ccc2cnc(Nc3ccccc3)nc2c1C1CCCC1"
  RESULT: 6.10
- ITEM_SMILES: "COc1cc(C)c2cnc(Nc3ccc(N4CCN(C(C)=O)CC4)cc3)nc2c1C1CCCC1"
  RESULT: "< 5.30"
- ITEM_SMILES: "COc1ccc2cnc(Nc3ccc(N4CCCC4)cc3)nc2c1C1CCCC1"
  RESULT: "< 5.30"
- ITEM_SMILES: "Oc1ccc2cnc(Nc3ccc(N4CCNCC4)cc3)nc2c1C1CCCC1"
  RESULT: 7.52
- ITEM_SMILES: "COc1ccc2cnc(Nc3ccc(N4CCNCC4)c(F)c3)nc2c1C(C)C"
  RESULT: 6.13
- ITEM_SMILES: "Cc1cc(=O)n(C2CCCC2)c2nc(Nc3ccc(N4CCNCC4)cc3)ncc12"
  RESULT: "< 5.30"
- ITEM_SMILES: "COc1ccc2cnc(Nc3ccc(N4CCN(C(C)=O)CC4)cc3)nc2c1C1CCCC1"
  RESULT: "< 5.30"
- ITEM_SMILES: "Cc1cc(O)c(C2CCCC2)c2nc(Nc3ccc(N4CCNCC4)cc3)ncc12"
  RESULT: "< 5.30"
- ITEM_SMILES: "Oc1ccc2cnc(Nc3ccc(N4CCNCC4)c(F)c3)nc2c1C1CCCC1"
  RESULT: 6.12
- ITEM_SMILES: "COc1ccc2cnc(Nc3ccc(N4CCCCC4)cc3)nc2c1C1CCCC1"
  RESULT: "< 5.30"

Could I get pIC50 for every one of these entries?
1. Oc1ccc2cnc(Nc3ccc(N4CCOCC4)cc3)nc2c1C1CCCC1
2. COc1cc(C)c2cnc(Nc3ccc(N4CCNCC4)cc3)nc2c1C1CCCC1
3. COc1ccc2cnc(Nc3ccc(N4CCCC4)cc3)nc2c1C(C)C
4. COc1ccc2cnc(Nc3ccc(N4CCCCC4)cc3)nc2c1C(C)C

Ans.
5.71
< 5.30
< 5.30
< 5.30

---

TEST_SUMMARY: Distribution coefficient at pH 7.4
Assay type: physicochemical
CONDITION_LABEL: octanol/water
PROPERTY_LABEL: logD

- ITEM_SMILES: "Cc1cc(O)c(C2CCCC2)c2nc(Nc3ccc(N4CCNCC4)cc3)ncc12"
  logD: 1.39

Give logD for all compounds that follow.
1. COc1cc(C)c2cnc(Nc3ccc(N4CCNCC4)cc3)nc2c1C1CCCC1
2. Cc1cc(=O)n(C2CCCC2)c2nc(Nc3ccc(N4CCNCC4)cc3)ncc12
3. COc1cc(C)c2cnc(Nc3ccc(N4CCN(C(C)=O)CC4)cc3)nc2c1C1CCCC1

Ans.
[2.32, 0.63, 3.77]

---

TARGET: Cyclin-dependent kinase 4/cyclin D1 (Homo sapiens, UniProt P11802)
Sequence (P11802 whole entry): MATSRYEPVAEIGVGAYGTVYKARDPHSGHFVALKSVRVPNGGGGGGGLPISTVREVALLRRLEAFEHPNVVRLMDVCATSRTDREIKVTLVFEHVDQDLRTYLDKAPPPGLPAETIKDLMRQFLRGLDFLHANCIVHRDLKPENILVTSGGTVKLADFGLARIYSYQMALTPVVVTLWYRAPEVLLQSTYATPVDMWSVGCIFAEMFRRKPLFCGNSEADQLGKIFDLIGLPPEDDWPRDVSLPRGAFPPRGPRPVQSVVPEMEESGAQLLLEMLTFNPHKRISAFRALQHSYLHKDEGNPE
Sequence (P24385 whole entry, further chain): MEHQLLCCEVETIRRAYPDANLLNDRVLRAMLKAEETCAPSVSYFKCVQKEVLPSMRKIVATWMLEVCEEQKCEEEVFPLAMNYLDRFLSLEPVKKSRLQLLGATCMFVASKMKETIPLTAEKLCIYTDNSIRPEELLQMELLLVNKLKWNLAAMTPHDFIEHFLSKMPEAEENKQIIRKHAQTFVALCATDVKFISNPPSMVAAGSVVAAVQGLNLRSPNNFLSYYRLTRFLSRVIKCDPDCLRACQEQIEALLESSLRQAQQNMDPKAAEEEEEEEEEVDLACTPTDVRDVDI
TEST_SUMMARY: Inhibitory concentration against CDK4/ Cyclin D
Flag rule - IC50 less than 7 nM flags y; the remaining entries get n.

The following molecules have reported results that may help.
- ITEM_SMILES: "Cc1cc(O)c(C2CCCC2)c2nc(Nc3ccc(N4CCNCC4)cc3)ncc12"
  CLASS_NAME: "n"
- ITEM_SMILES: "COc1cc(C)c2cnc(Nc3ccc(N4CCNCC4)cc3)nc2c1C1CCCC1"
  CLASS_NAME: "n"
- ITEM_SMILES: "Oc1ccc2cnc(Nc3ccc(N4CCOCC4)cc3)nc2c1C1CCCC1"
  CLASS_NAME: "y"

Qu. Lab note: confirm whether the reported IC50 for this molecule is below 7 nM, equality not counting. molecule: COc1ccc2cnc(Nc3ccccc3)nc2c1C1CCCC1
Ans. n

Qu. Lab note: IC50 threshold 7 nM. Does this molecule come in strictly under it? COc1cc(C)c2cnc(Nc3ccc(N4CCN(C(C)=O)CC4)cc3)nc2c1C1CCCC1
Ans. n

Qu. Below 7 nM on IC50? Entry Oc1ccc2cnc(Nc3ccc(N4CCNCC4)cc3)nc2c1C1CCCC1
Ans. y

Qu. Is IC50 of Oc1ccc2cnc(Nc3ccc(N4CCNCC4)c(F)c3)nc2c1C1CCCC1 strictly below 7 nM?
Ans. y

---

TARGET: Cyclin-dependent kinase 2/cyclin E1 (Homo sapiens)
TEST_SUMMARY: Inhibitory concentration against CDK2/ Cyclin E
For each of the molecules below, state its IC50.
One number for each entry, in nM.

Examples with their reported IC50 follow.
- MOLECULE: "Oc1ccc2cnc(Nc3ccc(N4CCOCC4)cc3)nc2c1C1CCCC1"
  UNIT: "nM"
  IC50: 635
- MOLECULE: "COc1ccc2cnc(Nc3ccc(N4CCC(N)C4)cc3)nc2c1C1CCCC1 (stereo unspecified)"
  UNIT: "nM"
  IC50: 775
- MOLECULE: "Oc1ccc2cnc(Nc3ccc(N4CCNCC4)cc3)nc2c1C1CCCC1"
  UNIT: "nM"
  IC50: 320
- MOLECULE: "COc1ccc2cnc(Nc3ccc(N4CCNCC4)c(F)c3)nc2c1C(C)C"
  UNIT: "nM"
  IC50: 655
- MOLECULE: "COc1ccc2cnc(Nc3ccccc3)nc2c1C1CCCC1"
  UNIT: "nM"
  IC50: 650

// next entry
Qu. Please look at Oc1ccc2cnc(Nc3ccc(N4CCNCC4)c(F)c3)nc2c1C1CCCC1 and tell me its recorded IC50 on Cyclin-dependent kinase 2/cyclin E1 (Homo sapiens).
Ans. 270
